# Test system: kochia (Kochia scoparia)
# PROCEDURE_TEXT: Test E greenhouse herbicide test, pre- and postemergence
# Type: in vivo
# CONDITION_SET: Preemergence, 31 g ai/ha; scale 0 to 100, 0 no effect, 100 complete control
Would you mind telling me the reported Plant response rating, Kochia of each entry?
One number for each entry.

Solved entries:
# RECORD_SMILES, Plant response rating, Kochia
data = [
    ("Cn1nc(Br)c(O)c(-c2cccc3ccccc23)c1=O", 0),
    ("COC(=O)Oc1c(C)nn(C)c(=O)c1-c1c(C)sc2ccc(C)cc12", 90),
    ("Cc1nn(C)c(=O)c(-c2ccc(Br)c3ccccc23)c1O", 98),
]

Your task in this section: give Plant response rating, Kochia for each listed record.
1. CCCC(=O)Oc1c(C)nn(C)c(=O)c1-c1c(C)sc2ccc(C)cc12
2. Cc1cc2ccccc2c(-c2c(O)c(C)nn(C)c2=O)c1C

RESULT:
[0, 0]

Cited source: patent US10597388B2
